Parameter Percent Control: see the listing below.
- System: EGFR(T790M)
- Assay setup: Compound Concentration (nM):1000;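 note: KINOMEscan scanMAX binding as percent activity remaining versus control; lower means stronger binding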
Give the value, in units of %, as a plain number.

>>> recorded_number("NS(=O)(=O)c1ccc(N/N=C2\\C(=O)Nc3ccc(-c4cnco4)cc32)cc1")
66
>>> recorded_number("CC(C)COC(=O)c1ccc2c(c1)/C(=C/Nc1ccc(S(N)(=O)=O)cc1)C(=O)N2 [GW416981X]")
95
>>> recorded_number("COc1cc(N2CCN(C(C)C)CC2)ccc1Nc1nc(Nc2ccc(F)cc2C(=O)NC[C@@H](O)CO)c2cc[nH]c2n1 [GSK1392956A]")
4.4
>>> recorded_number("COc1ccc(COc2ccc(Cc3cnc(N)nc3N)cc2OC)cc1 [GW632580X]")
69
>>> recorded_number("Cl.O=C(O[C@H]1CN[C@H](C#Cc2cc3ncnc(Nc4ccc5c(cnn5Cc5ccccc5)c4)c3s2)C1)N1CCOCC1 [GSK200398A]")
44
>>> recorded_number("NS(=O)(=O)c1ccc(N/N=C2\\C(=O)Nc3ccc(C(=O)NCCc4c[nH]cn4)cc32)cc1 [GW300660X]")
95
>>> recorded_number("NS(=O)(=O)c1ccc(N/N=C2\\C(=O)Nc3ccc(C(=O)NCc4ccncc4)cc32)cc1 [GW300657X]")
100
>>> recorded_number("NS(=O)(=O)c1ccc(N/N=C2\\C(=O)Nc3ccc(Cl)cc32)cc1 [GW280670X]")
100

Task: What value of Percent Control has been reported for the following compound? NS(=O)(=O)c1ccc(Nc2ncc(-c3ccccc3)o2)cc1 [GW572399X]
Result: 92

Task: Check COc1cc2ncn(-c3cc(O[C@H](C)c4ccccc4Cl)c(C(N)=O)s3)c2cc1OC [GSK237701A] too.
Result: 75

Task: Check COc1cc(/C=N/Nc2ncnc3[nH]ncc23)ccc1O [GW578748X] too.
Result: 48

Task: Check CN(C)CCNC(=O)Nc1ccc(N(C)c2ccnc(Nc3ccc(CS(C)(=O)=O)cc3)n2)cc1.Cl [GW830900A] too.
Result: 64

Task: Check COc1cc(C)c(N(C)C(=O)CN(C)C)cc1Nc1nc(Nc2cccc(F)c2C(N)=O)c2cc[nH]c2n1 too.
Result: 56

---

Parameter Percent Control: see the listing below.
- Tested on: AKT2
- Assay setup: Compound Concentration (nM):1000
Give the value, in units of %, as a plain number.

Solved entries (count: 8):
>>> recorded_number("COc1ccc(COc2ccc(Cc3cnc(N)nc3N)cc2OC)cc1 [GW632580X]")
100
>>> recorded_number("Cl.c1ccc(Cc2nc3ccc(Nc4ncnc5ccccc45)cc3[nH]2)cc1 [GR269666A]")
100
>>> recorded_number("CCc1ccc(Oc2nccc(-c3c(-c4ccc(F)cc4)ncn3C3CCNCC3)n2)cc1")
100
>>> recorded_number("COc1cc2ncn(-c3cc(O[C@H](C)c4ccccc4Cl)c(C(N)=O)s3)c2cc1OC [GSK237701A]")
88
>>> recorded_number("Cc1cc(O)cc(C)c1/C=C/c1cncc(C(N)=O)c1 [GW435821X]")
100
>>> recorded_number("Cl.O=C(Nc1ccc(Oc2ccc3[nH]c(NC(=O)c4ccccc4)nc3c2)cc1)Nc1cc(C(F)(F)F)ccc1F [GW709042A]")
100
>>> recorded_number("COc1ccc2cc(-c3c(-c4ccncc4)nc(-c4ccc(S(C)(=O)=O)cc4C)n3C)ccc2c1")
94
>>> recorded_number("COc1cc(/C=N/Nc2ncnc3[nH]ncc23)ccc1O [GW578748X]")
100

Attention now turns to another entry.
Task: What value of Percent Control has been reported for the following molecule? CC1=C(C(=O)Nc2ccc3[nH]ncc3c2)C(c2ccc(Cl)c(Cl)c2)CC(=O)N1 (stereo not drawn) [GSK299115A]
Result: 100

Data origin, for the record: paper PMC7826789
